FYI, the data here is from PubChem BioAssay (NCATS).

# TEST_DETAILS: Cell-based coincidence reporter assay to measure PMP22 gene transcription in S16 Pmp22-F2sN cells - Confirmatory screen (AID 1508646)
# ASSAY_CONDITIONS: S16 Schwann cells Pmp22-F2sN, dual luciferase, 24 h; series mostly up to 57.5 µM
The other results are listed elsewhere or left out. Records with an inconclusive call do not appear. The source made the active and inactive calls. How the source made its calls: active means clear falling dose curves in both reporters; inconclusive means both reporters move, but less clearly or upward; inactive means either reporter flat; the % is the FLuc reporter signal.
Field 'call' accepts active, inactive

Solved cases (2 shown):
CCCS(=O)(=O)c1ncc(Cl)c(C(=O)Nc2scc(-c3ccccc3)c2C(=O)OCC)n1 | active
CCOc1ccc(NC(=O)c2c(NC(=O)Cc3ccccc3)sc3c2CCC(C)C3)cc1 (centres undefined) | active

// query // outcome(item) with item = Cc1ccc(CCNC(=O)C2CCN(c3nnc(-n4cccc4CNc4ccc(C)cc4)s3)CC2)cc1
// result active

// query Which result was noted for this compound in the test: COc1cccc(NC(=O)CSC2=Nc3ccccc3C3=NC(CC(=O)NC4CCCCC4)C(=O)N23)c1 (centres undefined)
// result inactive
